# key: entry, value: viability at 24 h, 10 µM
Assay: Cytotoxicity against rat H9c2 cells assessed as cell viability at 10 uM after 24 hrs by MTT assay relative to control
Format: cell-based
Conditions: read-out: Activity
Field note: include the unit after the figure.

Ask: I would be grateful if you could share the reported viability at 24 h, 10 µM for "O=C1/C(=C/c2ccccc2F)CNC/C1=C\c1ccccc1F" .
Reply: 32.9%

Ask: I would be grateful if you could share the reported viability at 24 h, 10 µM for "O=C1/C(=C/c2ccc(C(F)(F)F)cc2)CNC/C1=C\c1ccc(C(F)(F)F)cc1" .
Reply: 51.7%

New cases:
Ask: I would be grateful if you could share the reported viability at 24 h, 10 µM for "CC1(C)C=C(CN2C/C(=C\c3ccc(F)cc3)C(=O)/C(=C/c3ccc(F)cc3)C2)C(C)(C)N1" .
Reply: 78.8%

====

Tested on: A2780
Assay: Cytotoxicity against human A2780 cells assessed as cell viability at 10 uM after 24 hrs by MTT assay relative to control
Type: functional
Conditions: A2780, 24 h, read-out: Activity
measuredProperty: viability at 10 µM (%)
Provide only the numeric value, understood in %.

Ask: Find the measured viability at 10 µM: item "CC1(C)C=C(C(=O)N2C/C(=C\c3ccc(F)cc3)C(=O)/C(=C/c3ccc(F)cc3)C2)C(C)(C)N1[O]" , target or system A2780.
Reply: 4.54

Ask: Find the measured viability at 10 µM: item "O=C1/C(=C/c2ccccc2F)CNC/C1=C\c1ccccc1F" , target or system A2780.
Reply: 12.8

Ask: Find the measured viability at 10 µM: item CC1(C)CCC(C)(C#CCN2C/C(=C\c3ccc(F)cc3)C(=O)/C(=C/c3ccc(F)cc3)C2)N1[O] (centres undefined) , target or system A2780.
Reply: 5.89

Ask: Find the measured viability at 10 µM: item "CC1(C)c2cnc(CN3C/C(=C\c4ccc(F)cc4)C(=O)/C(=C/c4ccc(F)cc4)C3)cc2C(C)(C)N1[O]" , target or system A2780.
Reply: 5.26
